# Tested on: Vaccinia virus
# EXPERIMENTAL PROTOCOL: Antiviral activity against vaccinia virus
# Type: functional
# CONDITION SUMMARY: Orthopoxvirus vaccinia
EXPERIMENTAL ENDPOINT: MIC50

Return reported MIC50; argument: O=c1[nH]c(=O)n([C@H]2C[C@H](O)[C@@H](CO)O2)cc1/C=C/Br [BRIVUDINE]
2 µg/mL

Return reported MIC50; argument: `CCCCCCCCc1cn([C@H]2C[C@H](O)[C@@H](CO)O2)c(=O)[nH]c1=O`
7 µg/mL

Return reported MIC50; argument: `CCc1cn([C@H]2C[C@@H]3OP(=O)(O)OC[C@H]3O2)c(=O)[nH]c1=O.N`
70 µg/mL

Return reported MIC50; argument: `CCCCCCc1cn([C@H]2C[C@@H]3OP(=O)(O)OC[C@H]3O2)c(=O)[nH]c1=O.N`
> 400 µg/mL

Return reported MIC50; argument: `CC(C)c1cn([C@H]2C[C@@H]3OP(=O)(O)OC[C@H]3O2)c(=O)[nH]c1=O.N`
> 200 µg/mL

Return reported MIC50; argument: `CCCCCCc1cn([C@H]2C[C@H](O)[C@@H](CO)O2)c(=O)[nH]c1=O`
300 µg/mL

====

# System: Human alphaherpesvirus 2
# EXPERIMENTAL PROTOCOL: Antiviral activity against Herpes Simplex Virus-2(G)
# Format: functional
EXPERIMENTAL ENDPOINT: log10 MIC50 (log10 of the value in µg/mL)
Units before log transform: µg/mL; reported quantity: MIC50; transform: log10.

Return reported log10 MIC50; argument: `CCCCCCCCc1cn([C@H]2C[C@H](O)[C@@H](CO)O2)c(=O)[nH]c1=O`
2.00

Return reported log10 MIC50; argument: `CCCCCc1cn([C@H]2C[C@H](O)[C@@H](CO)O2)c(=O)[nH]c1=O`
1.85

Return reported log10 MIC50; argument: `CCc1cn([C@H]2C[C@H](O)[C@@H](CO)O2)c(=O)[nH]c1=O`
-0.40

Return reported log10 MIC50; argument: `CCCc1cn([C@H]2C[C@H](O)[C@@H](CO)O2)c(=O)[nH]c1=O`
1.00

Return reported log10 MIC50; argument: `CC(C)c1cn([C@H]2C[C@H](O)[C@@H](CO)O2)c(=O)[nH]c1=O`
1.60

Return reported log10 MIC50; argument: `CCCCCCc1cn([C@H]2C[C@H](O)[C@@H](CO)O2)c(=O)[nH]c1=O`
2.60

====

# Test system: Human alphaherpesvirus 2
# EXPERIMENTAL PROTOCOL: Antiviral activity against Herpes Simplex Virus-2(G)
# Assay type: functional
Field: MIC50. Provide a value for each of the compounds that follow.
Record the value in µg/mL, omitting the unit from your answer.

Return reported MIC50; argument: `CCCCc1cn([C@H]2C[C@H](O)[C@@H](CO)O2)c(=O)[nH]c1=O`
150

Return reported MIC50; argument: O=c1[nH]c(=O)n([C@H]2C[C@H](O)[C@@H](CO)O2)cc1/C=C/Br [BRIVUDINE]
1

Return reported MIC50; argument: `CCc1cn([C@H]2C[C@@H]3OP(=O)(O)OC[C@H]3O2)c(=O)[nH]c1=O.N`
10

Return reported MIC50; argument: `CCCc1cn([C@H]2C[C@@H]3OP(=O)(O)OC[C@H]3O2)c(=O)[nH]c1=O.N`
400
